These measurements were taken from PubChem BioAssay (NCI).

Test system: SW-620 colon
Assay: NCI-60 one-dose screen, 48 h
Details: 10 µM unless noted
Description: Growth inhibition of the SW-620 human tumor cell line is measured as a screen for anti-cancer activity. Cells are grown in 96 well plates and exposed to the test compound for 48 hours. Compounds are tested at a single concentration, which is 10^-5 M for most compounds. The reported endpoint is percent growth (GI% or GIPRCNT), where numbers from 0 - 100% represent growth inhibition, and numbers from -100% - 0 represent cell death. For example, a value of 40 represents 60% growth inhibition. […]
The panel holds about 83,000 compounds, 20% with a hit somewhere; the sample as a whole holds those more often. Activity calls are given as the source filed them. How the source made its calls: active means growth percent below 10; inactive means the rest.
// classify into active, inactive

Field: outcome | Entry: "COc1ccc(OC)c(CCn2cncc2-c2c[nH]c3ccc(Cl)cc23)c1" inactive

Field: outcome | Entry: "O=C1C(SCc2ccccc2)=C(Cl)CN1c1ccccc1" inactive

Field: outcome | Entry: "CNC(=O)c1cc(N2CCc3cc(NC(=O)Nc4ccc(N5CCN(C)CC5)c(C(F)(F)F)c4)ccc32)ccn1" active

Field: outcome | Entry: "COc1ccc([C@@H]2C(=O)N(c3cc(OC)c(OC)c(OC)c3)[C@H]2c2ccc(OC)c(O)c2)cc1" inactive

Field: outcome | Entry: CC(=O)C1=C(C)NC(NNc2ccccc2)=NC1c1ccc([N+](=O)[O-])cc1 (centres undefined) inactive

Field: outcome | Entry: "CN1CCN(CC#CCn2c3c(c4ccccc42)C[C@]2(C)[C@H]4CC=C5[C@@H]6CC(C)(C)CC[C@]6(C(=O)N6CCOCC6)CC[C@@]5(C)[C@]4(C)CC[C@H]2C3(C)C)CC1" inactive

Field: outcome | Entry: "O=C(N/N=C/c1cc2ccccc2nc1Cl)c1cc(-c2nc3ccccc3[nH]2)nc2ccccc12" inactive

Field: outcome | Entry: "Cc1ccccc1NC(=O)Nc1nc2ccc([N+](=O)[O-])cc2s1" inactive

Field: outcome | Entry: "O=C(CCCCCCNC(=O)C(O)(O)C(F)(F)F)Nc1ccc(-c2ccccc2)cc1" active

* * *

System: NCI-H460 lung
Experiment: NCI-60 one-dose screen, 48 h
Conditions: 10 µM unless noted
Compounds without any hit were thinned out: in the full panel of roughly 83,000, 20% have a hit. Activity calls are given as the source filed them. How the source made its calls: active means growth percent below 10; inactive means the rest.
// classify into active, inactive

Field: outcome | Entry: "CC(C)(C)OC(=O)NCc1ccc(CNc2c([N+](=O)[O-])cnc3ccccc23)cc1" inactive

Field: outcome | Entry: "CNC(=O)c1cc(-n2ccc3cc(NC(=O)Nc4ccc(N5CCN(C)CC5)c(C(F)(F)F)c4)ccc32)ccn1" inactive

Field: outcome | Entry: "C#CCn1cc(/C=N/Nc2nc(-c3ccc(Br)cc3)cs2)c2ccccc21" inactive

Field: outcome | Entry: "CN(C)c1cccc2c(S(=O)(=O)Nc3cccc(-c4csc(NC(=O)CCCCCN5CCN(CCO)CC5)n4)c3)cccc12" inactive

Field: outcome | Entry: "CC(=O)OC[C@@]12Oc3c(cccc3-c3ccc(O)c4c3O[C@]3(COC(C)=O)C(=C4O)C(=O)C[C@H](C)[C@@H]3OC(C)=O)C(O)=C1C(=O)C[C@H](C)[C@@H]2OC(C)=O" inactive

Field: outcome | Entry: "N#C/C(=C\c1ccc(-c2ccc(Cl)cc2)o1)C(=O)Nc1ncc(Cc2ccc(Br)cc2)s1" active

Field: outcome | Entry: "CCCCCC[n+]1ccc(SCC(=O)n2ccc3ccccc32)c2ccccc21" inactive

Field: outcome | Entry: "COc1cc2oc(-c3cccc(NC(=O)c4cccc([N+](=O)[O-])c4)c3)cc(=O)c2c(OC)c1OC" inactive

Field: outcome | Entry: "C#C[C@]1(O)CC[C@H]2[C@@H]3CC=C4c5sc(N6CCN(C)CC6)nc5CC[C@]4(C)[C@H]3CC[C@@]21C" inactive

Field: outcome | Entry: "CC(=O)OCCCCN1C=C/C(=C\C(=O)n2ccc3ccccc32)c2ccccc21" inactive

Field: outcome | Entry: C=CCSC1=NC2C(N(CC)C(=O)N2CC)N1/N=C/C=C/c1ccccc1OC (stereo not drawn) inactive

Field: outcome | Entry: "O=C1Nc2ccccc2/C1=N\c1nnc(-c2ccccc2)o1" inactive

Field: outcome | Entry: "COc1ccc(C(=NNS(=O)(=O)c2ccc(C)cc2)c2ccccc2)cc1OC" inactive

Field: outcome | Entry: Nc1cc(C(=O)N/N=C\c2ccc(OC(F)F)c(OC3CCCC3)c2)nn1CC(O)c1ccccc1 (stereo not drawn) inactive

Field: outcome | Entry: "O=C1Nc2ccccc2/C1=C/c1ccc(OCC(=O)c2ccccc2)cc1" inactive

Field: outcome | Entry: "Cc1ccc2c(n1)C(=O)C(Cl)=C(Nc1ccc(C(C)C)cc1)C2=O" inactive

Field: outcome | Entry: "O=C(COc1ccc(/C=C2\C(=O)Nc3ccc(F)cc32)cc1)Nc1ccccc1" inactive

Field: outcome | Entry: "COc1ccc2c(c1)c(-c1nnc(N)nc1-c1c[nH]c3ccc(F)cc13)cn2C" inactive

Field: outcome | Entry: "C=C(C)[C@@H]1CC[C@]2(COCCCNCCCN)CC[C@]3(C)[C@H](CC[C@@H]4[C@@]5(C)CC[C@H](O)C(C)(C)[C@@H]5CC[C@]43C)[C@@H]12" active

Field: outcome | Entry: "C#CCN(C)CCCOc1ccc(NC(=O)CCCCCCC(=O)NO)cc1Cl" inactive

Field: outcome | Entry: COc1ccc(C2c3[nH]c4ccc(Cl)cc4c3CCN2c2oc(CO)nc2C#N)cc1 (stereo not drawn) inactive

Field: outcome | Entry: "O=C(CCl)Nc1ccc(NC(=O)c2cc(Cl)ccc2O)c(Cl)c1" inactive

Field: outcome | Entry: "Nc1ccc(Nc2ncnc3sc4c(c23)CCN(Cc2ccccc2)C4)cc1" inactive

Field: outcome | Entry: "Fc1ccc2nc(-c3cnn4cccnc34)sc2c1" inactive

Field: outcome | Entry: "CC(=C(c1ccc(OCCCN(C)C)cc1)c1ccc(OCCCN(C)C)cc1)c1ccc(Cl)cc1" inactive

Field: outcome | Entry: "CCCCCCNC(=O)Oc1ccc(/C(=C(/C)c2ccc(OC)cc2)c2ccc(OCCN3CCCCCC3)cc2)cc1" active

Field: outcome | Entry: "CC(=C(c1ccc(OCCN(C)C)cc1)c1ccc(OCCN(C)C)cc1)c1ccc(Cl)cc1" active

Field: outcome | Entry: "COC(=O)c1ccc(NC2=C(Cl)C(=O)c3nc(C)ccc3C2=O)cc1" inactive

Field: outcome | Entry: "COc1ccc(/C=N/NC(=O)c2c(N)nn(C)c2Nc2ccccc2)cc1Oc1ccccc1" inactive

Field: outcome | Entry: "COc1ccc(NC2=C(Br)C(=O)C(C)=C(C)C2=O)cc1OC" inactive

Field: outcome | Entry: "COc1ccc2[nH]cc(/C=N/Nc3ccnc4cc(Cl)ccc34)c2c1" active

Field: outcome | Entry: "N#Cc1c(-c2cccs2)cc(-c2cnccn2)nc1SCC(=O)N/N=C/c1cccs1" inactive

Field: outcome | Entry: "N#C/C(=C\c1cccc2c1OCO2)C(=O)Nc1sc2c(c1C#N)CCCC2" inactive

Field: outcome | Entry: "Cc1ccc(-c2nc(SCC(=O)c3ccccc3)nc(Nc3ccc(S(N)(=O)=O)cc3)c2C#N)cc1" inactive

Field: outcome | Entry: "O=C1C(SCc2ccccc2)=C(Cl)CN1c1ccc(Cl)cc1" inactive

Field: outcome | Entry: "COc1ccc2c(c1)c(-c1nn3cc(-c4ccncc4)nc3s1)cn2C" inactive

Field: outcome | Entry: "C[C@H](Nc1ncnc2ccc(-c3cnc(Cl)c(NS(C)(=O)=O)c3)cc12)c1ccccc1" active

Field: outcome | Entry: "COc1cccc(N2CCN(C3=C(Cl)C(=O)c4ncccc4C3=O)CC2)c1" inactive
